Measured inhibition accompanies every entry in the list below.
# System Tested: UniProt:P21802
# Sequence (P21802 22-821 limits assumed): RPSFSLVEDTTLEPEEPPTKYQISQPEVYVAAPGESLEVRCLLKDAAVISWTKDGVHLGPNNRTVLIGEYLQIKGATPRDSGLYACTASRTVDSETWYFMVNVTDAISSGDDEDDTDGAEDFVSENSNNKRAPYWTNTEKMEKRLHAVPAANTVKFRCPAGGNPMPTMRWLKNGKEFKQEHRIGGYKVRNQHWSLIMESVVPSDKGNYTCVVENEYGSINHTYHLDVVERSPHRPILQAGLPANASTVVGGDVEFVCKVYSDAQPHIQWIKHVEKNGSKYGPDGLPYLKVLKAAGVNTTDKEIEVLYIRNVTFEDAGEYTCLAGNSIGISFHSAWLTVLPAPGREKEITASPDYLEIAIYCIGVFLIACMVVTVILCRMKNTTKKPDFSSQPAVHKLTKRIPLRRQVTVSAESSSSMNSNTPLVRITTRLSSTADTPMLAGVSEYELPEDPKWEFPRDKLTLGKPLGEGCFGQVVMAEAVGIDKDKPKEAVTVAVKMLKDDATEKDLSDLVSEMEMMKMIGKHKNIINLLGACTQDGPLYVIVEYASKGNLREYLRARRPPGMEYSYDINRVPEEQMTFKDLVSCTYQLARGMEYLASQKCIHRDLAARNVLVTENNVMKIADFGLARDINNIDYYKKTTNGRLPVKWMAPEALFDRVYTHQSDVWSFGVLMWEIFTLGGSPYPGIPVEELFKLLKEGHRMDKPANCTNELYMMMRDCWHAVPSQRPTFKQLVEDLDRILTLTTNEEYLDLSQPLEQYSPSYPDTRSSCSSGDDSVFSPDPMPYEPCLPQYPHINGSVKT
# Method Summary: Inhibition of FGFR2 (unknown origin) at 50 uM

| Smiles | inhibition |
| --- | --- |
| CCN(CC)CCNC(=O)c1c(C)[nH]c(/C=C2\C(=O)Nc3ccc(S(=O)(=O)/C=C/c4ccc(Cl)cc4)cc32)c1C | 72% |
| O=c1c(O)c(-c2ccc(O)c(O)c2)oc2cc(O)cc(O)c12 | 67.3% |
| CCN(CC)CCNC(=O)c1c(C)[nH]c(/C=C2\C(=O)Nc3ccc(/C=C/S(=O)(=O)c4ccc(F)cc4)cc32)c1C | 76.6% |
| CCN(CC)CCNC(=O)c1c(C)[nH]c(/C=C2\C(=O)Nc3ccc(/C=C/S(=O)(=O)c4ccc(Br)cc4)cc32)c1C | 67.8% |
| CCN(CC)CCNC(=O)c1c(C)[nH]c(/C=C2\C(=O)Nc3ccc(F)cc32)c1C | 61.8% |

The measurements presented in this section are drawn from ChEMBL document CHEMBL3217428.
